Catalogue of pIC50 readings, one per entry.
test system: NF-kB-dependent TNF-α secretion; assay: TNF-α secretion assay in THP-1 cells (counter screen, HTRF); format: cell-based; details: Homo sapiens, Pam3CSK4-stimulated, 3 hours
pIC50: −log10 of the molar value.

get_value(item= Cc1cc(C(F)(F)F)cc(O)c1-c1ccc(OCC(C)(C)O)nn1 [Ex 19] , readout=pIC50) returns < 4.00

Recorded pIC50 (compound Cc1cc(C(F)(F)F)cc(O)c1-c1ccc(N[C@@H]2CCCN(C[C@H](C)O)C2)nn1 [Ex 92a] ): < 4.00

// pIC50 value for Cc1cc(C(F)(F)F)cc(O)c1-c1ccc(N[C@H]2CCCN[C@H]2C)nn1 [Ex 91a] : < 4.00

Cc1cc(NCC(C)(C)O)nnc1-c1c(C)cc(C(F)(F)F)cc1O [Ex 73] yielded pIC50 of 4.26

Sure, the documented pIC50 for Cc1cc(C(F)(F)F)cc(O)c1-c1ccc(NC2CCCN(C(C)C)C2)nn1 (stereo not drawn) [Ex 7] is < 4.00

Briefly, pIC50 measured for Cc1cc(C)c(-c2ccc(NCCc3ccc(S(N)(=O)=O)cc3)nn2)c(O)c1 [Ex 103] : 4.80

response.value for Cc1cc(C(F)(F)F)cc(O)c1-c1ccc(NC[C@](C)(O)CO)nn1 [Ex 88a] (field: pIC50) = 4.39

Summary for this compound, Cc1cc(C(F)(F)F)cc(O)c1-c1ccc(NC2CNCC(F)(F)C2)nn1 (stereo not drawn) [Ex 9] : pIC50 is < 4.00

Cc1cc(C(F)(F)F)cc(O)c1-c1ccc(N[C@@H]2CCCN(CCO)C2)nn1 [Ex 6] has a reported pIC50 of < 4.00

According to the records, this compound Cc1ncccc1CNc1ccc(-c2c(O)cc(C(F)(F)F)cc2Cl)nn1 [Ex 34] displays pIC50 of < 4.00

pIC50 recorded for this compound, CN1CCC[C@@H](Nc2ccc(-c3c(O)cc(C(F)(F)F)cc3Cl)nn2)C1 [Ex 49] , is < 4.00

response.value for CCN1CCC[C@@H](Nc2ccc(-c3c(C)cc(C(F)(F)F)cc3O)nn2)C1 [Ex 1] (field: pIC50) = < 4.00

The reported pIC50 of the compound Cc1cc(C(F)(F)F)cc(O)c1-c1ccc(NC[C@H]2CC(F)(F)CN2)nn1 [Ex 23] was < 4.00
